The reported numbers originate from patent US20210253718A1.

- test-system: FZD7 cysteine-rich domain (CRD), MYC-tagged and GPI-anchored on CHO cells (human, UniProt O75084 45-169)
- assay-comment: flow cytometry, CHO-CRD cells;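 also: flow cytometry of Fab binding to CHO cells overexpressing a Frizzled CRD, with binding defined as median fluorescence over twice that of CHO cells lacking any Frizzled CRD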
Listed binders paired with reported median fluorescence
// no unit string in output, number only

Fab-2923 (Fab, V domains shown, Fab; also called Fv-2923) VH: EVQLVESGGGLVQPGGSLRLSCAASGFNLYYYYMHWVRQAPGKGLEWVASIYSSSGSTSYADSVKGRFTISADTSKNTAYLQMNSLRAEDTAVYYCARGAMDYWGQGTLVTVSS VL: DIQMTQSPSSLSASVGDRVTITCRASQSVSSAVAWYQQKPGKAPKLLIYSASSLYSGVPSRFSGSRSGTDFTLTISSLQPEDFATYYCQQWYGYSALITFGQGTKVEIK	6.04
Fab-2926 (Fab, V domains shown, Fab; also called Fv-2926) VH: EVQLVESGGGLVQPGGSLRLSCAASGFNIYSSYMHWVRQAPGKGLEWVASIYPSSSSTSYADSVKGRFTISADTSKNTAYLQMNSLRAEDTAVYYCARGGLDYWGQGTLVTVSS VL: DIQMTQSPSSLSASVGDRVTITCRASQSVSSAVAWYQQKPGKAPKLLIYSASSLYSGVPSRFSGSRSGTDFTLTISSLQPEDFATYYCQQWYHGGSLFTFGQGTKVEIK	2.71

Turning now to a further record.
# binder Fab-2906 (Fab, V domains shown, Fab; also called Fv-2906) VH: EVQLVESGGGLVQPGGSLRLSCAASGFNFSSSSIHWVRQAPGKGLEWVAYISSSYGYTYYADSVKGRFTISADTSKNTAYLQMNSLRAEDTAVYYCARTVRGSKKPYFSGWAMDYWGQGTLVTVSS VL: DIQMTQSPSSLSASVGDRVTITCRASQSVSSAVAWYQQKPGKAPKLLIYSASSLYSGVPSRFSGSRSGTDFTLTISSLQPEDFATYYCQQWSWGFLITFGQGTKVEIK ; its median fluorescence = 2.92
